inhibition values, listed per item
- System under test: UniProt:P16116
- Assay protocol: In vitro inhibition of aldose reductase from the partially purified bovine lens at 10e-7 M concentration

The following compounds have reported results that may help.
Structure smiles string | inhibition
Cc1nc(NCc2cccnc2)c(C#N)c(=O)n1CC(=O)O | 30%
N#Cc1c(OCC(=O)O)nc(-c2cccc3ccccc23)nc1-c1ccccc1 | 53%
CSc1nc(C)nc(OCC(=O)O)c1C#N | 55%

inhibition recorded for this compound, `CSc1nc(CC(C)(C)C)nc(OCC(=O)O)c1C#N` , is 85%

inhibition recorded for this compound, `CSc1nc(C2CCCCC2)n(CC(=O)O)c(=O)c1C#N` , is 89%

inhibition recorded for this compound, `Cc1nc(NCc2ccccc2)c(C#N)c(=O)n1CC(=O)O` , is 76%

inhibition recorded for this compound, `N#Cc1c(-c2ccccc2)nc(-c2cccc3ccccc23)n(CC(=O)O)c1=O` , is 29%

inhibition recorded for this compound, `CC(C)(C)c1nc(OCC(=O)O)c(C#N)c(SCc2ccc(Br)cc2F)n1` , is 93%

inhibition recorded for this compound, `CC(C)c1nc(SCc2ccccc2)c(C#N)c(=O)n1CC(=O)O` , is 94%

inhibition recorded for this compound, `Cc1nc(-c2cccc3ccccc23)nc(OCC(=O)O)c1C#N` , is 46%

inhibition recorded for this compound, `CSc1nc(C(C)C)nc(OCC(=O)O)c1C#N` , is 88%

inhibition recorded for this compound, `N#Cc1c(SCc2ccc(Br)cc2F)nc(C2CCCCC2)n(CC(=O)O)c1=O` , is 92%

inhibition recorded for this compound, `CSc1nc(C)n(CC(=O)O)c(=O)c1C#N` , is 74%

inhibition recorded for this compound, `Cc1nc(N2CCC(Cc3ccccc3)CC2)c(C#N)c(=O)n1CC(=O)O` , is 81%

---

- System under test: Aldo-keto reductase family 1 member B1 (Bos taurus)
- Assay protocol: In vitro inhibition of aldose reductase from the partially purified bovine lens at 10e-5 M concentration
Assay metric: inhibition (%)
Entry rule: numbers only, all in %.

The following compounds have reported results that may help.
Structure smiles string | Measurement unit | inhibition
COC(=O)c1c(OCC(=O)O)nc(C(C)(C)C)nc1SC | % | 13
COC(=O)c1c(SC)nc(C2CCCCC2)n(CC(=O)O)c1=O | % | 5
Cc1nc(-c2ccccc2)nc(OCC(=O)O)c1C#N | % | 92
Cc1nc(N2CCC(Cc3ccccc3)CC2)c(C#N)c(=O)n1CC(=O)O | % | 90
CC(C)Sc1nc(C(C)(C)C)nc(OCC(=O)O)c1C#N | % | 92
Cc1nc(NCc2cccnc2)cc(=O)n1CC(=O)O | % | 53

inhibition recorded for this compound, `CSc1nc(C(C)(C)C)nc(OCC(=O)O)c1C(N)=O` , is 81

inhibition recorded for this compound, `N#Cc1c(-c2ccccc2)nc(-c2cccc3ccccc23)n(CC(=O)O)c1=O` , is 84

inhibition recorded for this compound, `CC(C)(C)c1nc(OCC(=O)O)c(C#N)c(SCC2CCCCC2)n1` , is 97

---

- System under test: Aldo-keto reductase family 1 member B1 (Bos taurus) (UniProt P16116)
- Assay protocol: In vitro inhibition of aldose reductase from the partially purified bovine lens at 10e-5 M concentration
Answer no (0) if inhibition is under 90%, and yes (1) if it is 90% or more.

For this compound, is measured inhibition 90% or higher? `CC(C)c1nc(SCc2ccccc2)c(C#N)c(=O)n1CC(=O)O`
yes (1)
